Source listed as paper PMC11467430.

- tgt: rabbit lung ACE (Oryctolagus cuniculus, UniProt P12822)
- Sequence (P12822 34-1310): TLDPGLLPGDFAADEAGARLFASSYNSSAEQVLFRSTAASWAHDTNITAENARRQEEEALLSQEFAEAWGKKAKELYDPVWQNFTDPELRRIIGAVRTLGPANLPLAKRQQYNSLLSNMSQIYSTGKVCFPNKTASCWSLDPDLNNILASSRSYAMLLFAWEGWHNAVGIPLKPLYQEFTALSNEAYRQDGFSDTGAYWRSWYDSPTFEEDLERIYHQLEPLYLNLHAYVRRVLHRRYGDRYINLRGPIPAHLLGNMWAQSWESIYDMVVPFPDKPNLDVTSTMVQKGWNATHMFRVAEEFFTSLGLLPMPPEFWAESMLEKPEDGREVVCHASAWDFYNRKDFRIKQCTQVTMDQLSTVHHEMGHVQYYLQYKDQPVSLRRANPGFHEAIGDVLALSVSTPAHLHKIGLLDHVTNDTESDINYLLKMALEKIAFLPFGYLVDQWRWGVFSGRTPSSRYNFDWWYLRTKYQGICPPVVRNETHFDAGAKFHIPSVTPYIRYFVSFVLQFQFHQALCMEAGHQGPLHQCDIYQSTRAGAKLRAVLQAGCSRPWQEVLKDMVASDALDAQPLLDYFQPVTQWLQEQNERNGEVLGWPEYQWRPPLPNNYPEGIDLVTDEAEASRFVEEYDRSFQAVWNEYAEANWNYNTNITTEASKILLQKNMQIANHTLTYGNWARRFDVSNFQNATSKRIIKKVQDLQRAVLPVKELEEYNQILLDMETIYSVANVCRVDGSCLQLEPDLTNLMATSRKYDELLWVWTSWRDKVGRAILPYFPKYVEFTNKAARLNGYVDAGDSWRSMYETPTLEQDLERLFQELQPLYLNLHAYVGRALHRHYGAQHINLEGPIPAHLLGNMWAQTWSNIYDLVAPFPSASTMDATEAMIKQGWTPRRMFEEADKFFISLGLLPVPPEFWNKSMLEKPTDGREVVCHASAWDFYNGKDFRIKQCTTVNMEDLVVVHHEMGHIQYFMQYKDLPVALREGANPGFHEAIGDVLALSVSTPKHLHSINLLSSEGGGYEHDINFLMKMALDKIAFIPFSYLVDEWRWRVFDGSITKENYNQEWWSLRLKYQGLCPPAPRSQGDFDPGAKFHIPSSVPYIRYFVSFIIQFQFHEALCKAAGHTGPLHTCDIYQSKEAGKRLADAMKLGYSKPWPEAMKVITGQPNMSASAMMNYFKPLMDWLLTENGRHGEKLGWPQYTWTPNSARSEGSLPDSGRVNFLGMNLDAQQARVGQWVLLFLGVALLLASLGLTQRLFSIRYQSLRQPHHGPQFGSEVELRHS
assay-readout: pIC50
Value format note: pIC50 is -log10 of concentration (mol/L); just state the number.

Which pIC50 is listed for NCCCC[C@H](N[C@@H](CCc1ccccc1)C(=O)O)C(=O)N1CCC[C@H]1C(=O)O [Lisinopril, lisinopril] ? 8.75
